# EXPERIMENT: Solubility measurement of saturated solutions by HPLC at room temperature (0 h and 24 h)
# Format: physicochemical
# CONDITION_DETAILS: buffered water with excipient (saturated solution), pH 4, aqueous buffer, thermodynamic from solid, CBS 30 mM pH 4.0; Ethanol 20 mg/mL; 0 h; pH exp 4.1
TEST_READOUT: solubility at 0 h (µg/mL)
Dear colleague, please return just the value in µg/mL, with no unit written.

Enquiry: Look at this compound and give its reported solubility at 0 h. "COc1cc(N2CCNCC2)ccc1Nc1ncc2c(n1)-n1ccc(C(=O)Nc3c(C)cccc3C)c1CC2"
Return: 160

----------
# EXPERIMENT: Solubility measurement of saturated solutions by HPLC at room temperature (0 h and 24 h)
# Type: physicochemical
# CONDITION_DETAILS: buffered water with excipient (saturated solution), pH 4, aqueous with cosolvent or surfactant or cyclodextrin, thermodynamic from solid, CBS 30 mM pH 4.0; Ethanol 50 mg/mL; 0 h; pH exp 4.2
TEST_READOUT: solubility at 0 h (µg/mL)
Dear colleague, please return just the value in µg/mL, with no unit written.

Enquiry: Look at this compound and give its reported solubility at 0 h. "COc1cc(N2CCNCC2)ccc1Nc1ncc2c(n1)-n1ccc(C(=O)Nc3c(C)cccc3C)c1CC2"
Return: 190

----------
# EXPERIMENT: Solubility measurement of saturated solutions by HPLC at room temperature (0 h and 24 h)
# Format: physicochemical
# CONDITION_DETAILS: buffered water with excipients, pH 4, aqueous with cosolvent or surfactant or cyclodextrin, thermodynamic from solid, CBS 30 mM pH 4.0, NaCl 6 mg/mL; SBE-beta-CD 40 mg/mL + Propylene glycol 10 mg/mL; 24 h; pH exp 4.2
TEST_READOUT: solubility at 24 h (µg/mL)
Dear colleague, please return just the value in µg/mL, with no unit written.

Enquiry: Look at this compound and give its reported solubility at 24 h. COc1cc(N2CCNCC2)ccc1Nc1ncc2c(n1)-n1ccc(C(=O)Nc3c(C)cccc3C)c1CC2 [compound of formula (I)]
Return: 3650

----------
# EXPERIMENT: Solubility measurement of saturated solutions by HPLC at room temperature (0 h and 24 h)
# Format: physicochemical
# CONDITION_DETAILS: buffered water with excipient (saturated solution), pH 4, aqueous with cosolvent or surfactant or cyclodextrin, thermodynamic from solid, CBS 30 mM pH 4.0; PEG 100 mg/mL; 0 h; pH exp 4.3
TEST_READOUT: solubility at 0 h (µg/mL)
Dear colleague, please return just the value in µg/mL, with no unit written.

Enquiry: Look at this compound and give its reported solubility at 0 h. COc1cc(N2CCNCC2)ccc1Nc1ncc2c(n1)-n1ccc(C(=O)Nc3c(C)cccc3C)c1CC2 [compound of formula (I)]
Return: 600

----------
# EXPERIMENT: Solubility measurement of saturated solutions by HPLC at room temperature (0 h and 24 h)
# Format: physicochemical
# CONDITION_DETAILS: buffered water with excipients, pH 4, aqueous with cosolvent or surfactant or cyclodextrin, thermodynamic from solid, CBS 30 mM pH 4.0, NaCl 3 mg/mL; SBE-beta-CD 40 mg/mL + Glycerol 50 mg/mL; 24 h; pH exp 4.2
TEST_READOUT: solubility at 24 h (µg/mL)
Dear colleague, please return just the value in µg/mL, with no unit written.

Enquiry: Look at this molecule and give its reported solubility at 24 h. COc1cc(N2CCNCC2)ccc1Nc1ncc2c(n1)-n1ccc(C(=O)Nc3c(C)cccc3C)c1CC2 [compound of formula (I)]
Return: 3570

Provenance of the data: patent US20250049926A1
